B1: LMNB1 (parent)
chain: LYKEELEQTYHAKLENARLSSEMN

variants of: B1; assay: protein stability index of a GFP-peptide fusion (GPS, HEK-293T) (PSI 1-6); higher = more stable; settings: c terminus: a fixed tail appended;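 further: lentivirally expressed fusions sorted by FACS into six bins by GFP to DsRed ratio, PSI derived from sequencing read proportions per bin multiplied by bin number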
Values of protein stability index greater than or equal to 3 map to met; values below map to not met.

Study these solved cases before continuing.
>  <Variant key>
Q8S

>  <Group label>
not met

$$$$
>  <Variant key>
A17E

>  <Group label>
met

$$$$
>  <Variant key>
K13P

>  <Group label>
met

$$$$
>  <Variant key>
N24A

>  <Group label>
not met

$$$$
>  <Variant key>
S20E

>  <Group label>
not met

$$$$

Entry K13I : is its protein stability index no less than 3?
not met

Query E7L next
met

Query M23L next
not met

Query Y2R next
met

Query L19A next
met

Query S20C next
not met

Query E22G next
not met

Query N16P next
met

Query H11F next
met

Query E22Y next
not met
